# study target: Inhibitor of nuclear factor kappa-B kinase subunit beta (Homo sapiens);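 also: values are mean percent inhibition of IKKB, part of the GSK PKIS screening data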
# Sequence (whole entry): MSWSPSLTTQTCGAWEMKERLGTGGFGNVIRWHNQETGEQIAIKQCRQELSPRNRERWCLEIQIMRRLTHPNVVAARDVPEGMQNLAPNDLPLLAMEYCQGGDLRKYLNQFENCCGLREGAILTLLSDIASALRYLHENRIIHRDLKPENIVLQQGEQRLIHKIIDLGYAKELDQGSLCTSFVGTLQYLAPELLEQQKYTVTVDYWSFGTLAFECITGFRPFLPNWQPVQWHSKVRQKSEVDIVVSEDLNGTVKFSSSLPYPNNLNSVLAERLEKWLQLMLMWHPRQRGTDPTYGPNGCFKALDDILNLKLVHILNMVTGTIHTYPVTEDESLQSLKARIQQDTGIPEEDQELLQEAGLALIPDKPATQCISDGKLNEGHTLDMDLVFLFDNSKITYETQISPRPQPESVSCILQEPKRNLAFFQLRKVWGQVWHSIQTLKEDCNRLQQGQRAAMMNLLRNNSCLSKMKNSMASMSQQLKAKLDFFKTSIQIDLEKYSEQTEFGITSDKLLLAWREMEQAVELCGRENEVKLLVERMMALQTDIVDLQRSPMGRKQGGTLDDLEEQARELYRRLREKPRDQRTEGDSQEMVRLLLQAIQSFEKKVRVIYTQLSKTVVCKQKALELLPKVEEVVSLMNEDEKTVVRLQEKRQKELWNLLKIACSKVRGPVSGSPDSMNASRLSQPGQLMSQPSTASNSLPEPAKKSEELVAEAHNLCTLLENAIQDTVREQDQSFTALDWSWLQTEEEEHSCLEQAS
# conditions: at 0.1 µM
measured metric: inhibition (%)
Write the number in % without appending the unit.

The following molecules have reported results that may help.
| smiles input | inhibition, % |
| --- | --- |
| Cc1cccc(Nc2ncc(-c3ccccc3)o2)c1 | 4.82 |
| O=S(=O)(CCNCc1ccc(-c2ccc3ncnc(Nc4ccc(OCc5cccc(F)c5)c(Cl)c4)c3c2)o1)c1ccccc1 | 6.77 |
| NS(=O)(=O)c1ccc(Nc2ncc(-c3ccccc3)o2)cc1 | 3.35 |
| CCn1c(-c2nonc2N)nc2cnc(Oc3cccc(NC(=O)c4ccc(N(C)C)cc4)c3)cc21 | 2.96 |
| Fc1cccc(COc2ccc(Nc3ncnc4sc(-c5ccco5)cc34)cc2Cl)c1 | 5.86 |

Lab note: need inhibition for CC(C)(CO)CNC(=O)c1ccc2c(c1)/C(=N/Nc1ccc(S(N)(=O)=O)cc1)C(=O)N2 on Inhibitor of nuclear factor kappa-B kinase subunit beta (Homo sapiens), anyone have it?
3.25

Same lookup for CNC(=O)c1cncc(/C=C/c2ccccc2Cl)c1 , please.
-0.46

Same lookup for NS(=O)(=O)c1ccc(N/N=C2\C(=O)Nc3ccc4ncccc4c32)cc1 , please.
4.79

Same lookup for Nc1ncc(-c2cccc(S(N)(=O)=O)c2)c2scc(-c3ccc(F)c(Cl)c3)c12 , please.
3

Same lookup for c1ccc(COc2ccc(Nc3ncnc4ccc(-c5ccco5)cc34)cc2)cc1 , please.
1.07

Same lookup for Nc1nc(-c2cccc(Cl)c2)c(-c2ccc3ncccc3n2)s1 , please.
8.18

Same lookup for CNC(=O)c1cc(-c2ccc(F)cc2)cc(-c2ccc(S(=O)(=O)N3CCCC3)cc2)c1N , please.
5.48

Same lookup for COc1ccc(-c2oc3ncnc(N)c3c2-c2ccc(NC(=O)Nc3cc(C(F)(F)F)ccc3F)cc2)cc1 , please.
7.03

Same lookup for COc1cc(/C=N/Nc2ncnc3[nH]ncc23)ccc1O , please.
5.05

Same lookup for O=C(O[C@H]1CN[C@H](C#Cc2cc3ncnc(Nc4ccc(Cc5ccccc5)cc4)c3s2)C1)N1CCOCC1 , please.
4

Same lookup for c1cc(-c2cnn3nc(N4CCOCC4)ccc23)nc(NC2CC2)n1 , please.
3.81

Same lookup for CCCN(CCS(C)(=O)=O)Cc1ccc(-c2ccc3ncnc(Nc4ccc(OCc5cccc(F)c5)c(Cl)c4)c3c2)o1 , please.
0.53

Same lookup for FC(F)(F)c1cccc(-c2nn3ncccc3c2-c2ccnc(Nc3ccc4c(c3)OCCO4)n2)c1 , please.
2.71

Same lookup for COc1ccc(-c2cc(-c3c[nH]nc3-c3ccccn3)ccn2)cc1 , please.
7.11
